# Test system: HCC 2998
# assay-comment: NCI tumour cell line growth inhibition, 48 h
The source made the active and inactive calls. Rule as the data show it: active = GI50 up to about 1.1 µM and inactive = higher.
quantity: GI50

>>> print(df.to_string())
                                   molecule  quantity              result
0  C=C(C)C(=O)O[C@H]1[C@H]2[C@H](OC(=O)[C@H]2C)[C@H](O)[C@@H](C)[C@@H]2C=CC(=O)[C@]21C      GI50  2.45 µM (inactive)

GET /value?item= `Cc1ccc(/C=c2\cc3oc(=O)c4cccc(c4-3)c2=O)cc1` &field=GI50 returns > 100 µM (inactive)

// `c1ccc2c3c(ccc2c1)CSCc1ccc2ccccc2c1-3` : GI50 value = > 100 µM (inactive)

Entry NC(=O)C1N=NSC1NC(=O)c1ccc([N+](=O)[O-])cc1 (configuration not stated) , GI50 reported as 37.6 µM (inactive)

Sample `CC(=O)Oc1c(Br)ccc2cc(C(Br)Br)c(C(=O)c3ccccc3)nc12` ; GI50 observed: 17.9 µM (inactive)
